study-target: GST-RIPK1 (recombinant GST-RIPK1 kinase domain (residues 1-327)) (Homo sapiens, UniProt Q13546)
Construct: recombinant GST-RIPK1 kinase domain (residues 1-327) enzyme produced from baculovirus-transfected Sf21 cells
Sequence (Q13546 1-327): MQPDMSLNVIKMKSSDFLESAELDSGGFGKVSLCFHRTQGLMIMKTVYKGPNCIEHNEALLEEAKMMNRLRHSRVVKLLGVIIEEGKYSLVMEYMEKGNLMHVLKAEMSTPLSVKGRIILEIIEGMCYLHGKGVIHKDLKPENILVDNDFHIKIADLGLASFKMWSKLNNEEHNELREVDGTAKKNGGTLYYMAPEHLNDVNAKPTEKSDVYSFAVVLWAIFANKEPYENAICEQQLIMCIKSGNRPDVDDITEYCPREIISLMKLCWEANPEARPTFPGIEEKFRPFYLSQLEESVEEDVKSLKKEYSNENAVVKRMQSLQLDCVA
experiment-notes: RIPK1-ADP-Glo Enzymatic Assay
condition-summary: ten-point titration, top compound concentration of 100000 nM; 25 nM GST-RIPK1, 300 μM ATP, 3 μM dephosphorylated-MBP; 30 min pre-incubation, 150 min reaction
assay-readout: log10 of EC50 (log10 of the value in nM)

> print(dat)
                                    compound  assay.readout  quantitative.result
 1  O=C1N2C(CC[C@H]2c2cnccn2)OC12CC(OCc1cccc(CCn3cnnc3)c1)C2 (stereo partly shown)  log10 of EC50                 2.00
 2  Cn1cc(COC2CC3(C2)OC2CC[C@@H](c4cnccn4)N2C3=O)cn1 (stereo partly shown)  log10 of EC50                 2.49
 3  O=C1N2[C@@H](CC[C@H]2c2cnccn2)OC12CC(OCc1ccccc1)C2 (stereo partly shown)  log10 of EC50                 1.38
 4  Cc1cn(-c2cc(OC3CC4(C3)O[C@@H]3CC[C@@H](c5cc(F)cc(F)c5)N3C4=O)ncn2)cn1 (stereo partly shown) [Example 9.11]  log10 of EC50                 1.32
 5  N#Cc1cc(O[C@H]2C[C@@]3(C2)O[C@@H]2CC[C@@H](c4ccc(F)cc4)N2C3=O)ncn1  log10 of EC50                 1.15
 6  O=C1N2C(CC[C@H]2c2cnccn2)OC12CC(OCc1ccc(OC3CCOCC3)nc1)C2 (stereo partly shown) [Example 18.57]  log10 of EC50                 2.04
 7  O=C1N2[C@@H](CC[C@H]2c2ccc(F)cn2)O[C@]12C[C@@H](OCc1ccccc1)C2  log10 of EC50                 2.03
 8  Cn1cc2cc(COC3CC4(C3)O[C@@H]3CC[C@@H](c5cnccn5)N3C4=O)ccc2n1 (stereo partly shown)  log10 of EC50                 2.10
 9  O=C1N2C(CC[C@H]2c2cnccn2)OC12CC(OCc1ccnc3ccnn13)C2 (stereo partly shown)  log10 of EC50                 2.63
10  O=C1N2[C@@H](CC[C@H]2c2ccccc2)OC12CC(Oc1nncc3cccn13)C2 (stereo partly shown)  log10 of EC50                 1.46
11  O=C1N2[C@@H](CC[C@H]2c2cnccn2)OC12CC(Oc1ccc(F)c(F)c1)C2 (stereo partly shown) [Example 19.22]  log10 of EC50                 1.08
12  COc1cc(COC2CC3(C2)OC2CC[C@@H](c4cnccn4)N2C3=O)cc2nccn12 (stereo partly shown) [Example 18.83]  log10 of EC50                 2.15
13  N#Cc1ccc(COC2CC3(C2)O[C@@H]2CC[C@@H](c4cnccn4)N2C3=O)cc1 (single isomer, unassigned) [Example 22.7]  log10 of EC50                 1.46
14  O=C1N2[C@@H](CC[C@H]2c2cc(F)cc(F)c2)OC12CC(Oc1ncccc1F)C2 (stereo partly shown) [Example 9.38]  log10 of EC50                 1.46
15  O=C1N2[C@@H](CC[C@H]2c2ncccc2F)OC12CC(Oc1ncnn3cccc13)C2 (stereo partly shown)  log10 of EC50                 1.01
16  O=C1N2C(CC[C@H]2c2cnccn2)OC12CC(OCc1ccc3c(c1)CCO3)C2 (stereo partly shown) [Example 18.92]  log10 of EC50                 2.39
